Each record here notes measured Mean % WT Binding.
- targetDesc: human CD33 variant K52I (human, UniProt P20138 18-364)
- Sequence (P20138 18-364 K52I limits assumed): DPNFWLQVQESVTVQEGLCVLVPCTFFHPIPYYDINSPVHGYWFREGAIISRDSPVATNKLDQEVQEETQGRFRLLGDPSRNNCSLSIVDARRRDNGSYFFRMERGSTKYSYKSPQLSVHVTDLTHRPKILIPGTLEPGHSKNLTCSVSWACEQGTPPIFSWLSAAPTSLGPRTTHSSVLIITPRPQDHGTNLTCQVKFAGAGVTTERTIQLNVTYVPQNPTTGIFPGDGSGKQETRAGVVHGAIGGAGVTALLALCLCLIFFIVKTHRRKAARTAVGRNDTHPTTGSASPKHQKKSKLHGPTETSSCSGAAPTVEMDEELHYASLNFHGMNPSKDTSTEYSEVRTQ
- protocolDetails: flow cytometry, IgG on cells expressing the mutant
propertyMeasured: Mean % WT Binding

binder	observedMeasurement
Refmab #3 (antibody, human IgG1, V domains shown, Tested in IgG format; human IgG1 Fc silent (PG-LALA)) VH: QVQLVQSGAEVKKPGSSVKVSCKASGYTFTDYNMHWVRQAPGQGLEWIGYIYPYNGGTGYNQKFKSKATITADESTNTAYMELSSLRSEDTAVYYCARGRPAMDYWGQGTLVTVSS VL: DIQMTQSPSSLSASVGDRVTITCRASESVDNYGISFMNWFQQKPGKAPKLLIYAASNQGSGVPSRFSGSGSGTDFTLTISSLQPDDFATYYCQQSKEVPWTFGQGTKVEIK	88.7 % of WT
Refmab #1 (antibody, human IgG1, V domains shown, Tested in IgG format; human IgG1 (Absolute Antibody hP67.6, Cat. No. Ab00283-10.0); also called hP67.6) VH: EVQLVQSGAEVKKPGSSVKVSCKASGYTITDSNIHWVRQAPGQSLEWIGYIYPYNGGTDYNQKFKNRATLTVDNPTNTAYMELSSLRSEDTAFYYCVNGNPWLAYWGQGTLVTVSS VL: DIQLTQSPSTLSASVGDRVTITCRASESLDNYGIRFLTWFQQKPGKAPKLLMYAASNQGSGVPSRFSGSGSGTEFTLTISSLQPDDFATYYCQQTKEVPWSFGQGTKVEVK	89.2 % of WT
Refmab #2 (antibody, human IgG1, V domains shown, Tested in IgG format; human IgG1 Fc silent (PG-LALA)) VH: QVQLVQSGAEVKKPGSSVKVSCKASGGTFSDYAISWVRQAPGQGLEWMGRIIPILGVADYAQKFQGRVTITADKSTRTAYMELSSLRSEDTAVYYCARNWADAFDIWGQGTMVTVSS VL: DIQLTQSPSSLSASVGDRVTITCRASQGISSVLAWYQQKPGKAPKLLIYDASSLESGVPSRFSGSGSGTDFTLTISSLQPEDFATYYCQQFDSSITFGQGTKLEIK	86.8 % of WT
Refmab #4 (antibody, human IgG1, V domains shown, Tested in IgG format; human IgG1 Fc silent (PG-LALA)) VH: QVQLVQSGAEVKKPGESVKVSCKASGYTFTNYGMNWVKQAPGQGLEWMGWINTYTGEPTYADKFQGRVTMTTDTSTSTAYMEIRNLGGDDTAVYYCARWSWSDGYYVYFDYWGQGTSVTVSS VL: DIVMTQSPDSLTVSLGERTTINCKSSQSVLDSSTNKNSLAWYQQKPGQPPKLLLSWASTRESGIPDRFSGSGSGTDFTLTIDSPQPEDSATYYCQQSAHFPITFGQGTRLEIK	61.9 % of WT

// data source = patent US20260242735A1
